Test system: HCT116 WT cells
Test: HCT116 proliferation assay, WT cells (CellTiter-Glo, 6 days)
Type: cell-based
Measurement Context: Homo sapiens, HCT-116, 144 h, read-out: Prolif_HCT116-WT IC50
Experimental: HCT116 MTAP null and WT cells were seeded in 96-well tissue culture plates in RPMI 1640 media + 10% fetal bovine serum. Plates were incubated overnight at 37° C. and 5% CO2. […] Effects on cell viability were measured with the CellTiter-Glo® Luminescent Cell Viability Assay (Promega) per manufacturer’s recommendation. Assay plates were read on an EnVision™ Multilabel Reader using the Ultra-Sensitive luminescence module.
Quantity Measured: log10 IC50 (log10 of the value in µM)

{"Compound": "COCCN(Cc1ccc(C(F)(F)F)cn1)C(=O)c1ccc2nc(N)c(C)cc2c1 [Example 370]", "Quantity Measured": "log10 IC50", "Reported Result": 0.75}
{"Compound": "Cc1cc2cc(C(=O)N(Cc3ccc(C(F)(F)F)cn3)[C@@H]3CCCc4nccnc43)ccc2nc1N (single isomer, unassigned) [Example 521]", "Quantity Measured": "log10 IC50", "Reported Result": -1.11}
{"Compound": "Cc1cc2cc(C(=O)N(Cc3ccc(C(F)(F)F)cn3)Cc3ccnc4[nH]ccc34)cnc2nc1N [Example 368]", "Quantity Measured": "log10 IC50", "Reported Result": 0.88}
{"Compound": "Cc1cc2c(C)c(C(=O)N(Cc3ccc(C(F)(F)F)cn3)[C@H](C)c3ncccn3)ccc2nc1N [Example 770]", "Quantity Measured": "log10 IC50", "Reported Result": 0.68}
{"Compound": "COc1ccc(CN(C(=O)c2cc3cc(C)c(N)nc3cc2F)[C@@H](C)c2ncccn2)nn1 (single isomer, unassigned) [Example 480]", "Quantity Measured": "log10 IC50", "Reported Result": 0.16}
{"Compound": "Cc1cc2cc(C(=O)N(Cc3ccc(C#N)cn3)[C@H](C)c3ncccn3)c(F)cc2nc1N [Example 404]", "Quantity Measured": "log10 IC50", "Reported Result": 0.50}

====

Assay System: PRMT5/MEP50 (Homo sapiens, UniProt O14744)
Sequence (O14744 2-637 limits assumed): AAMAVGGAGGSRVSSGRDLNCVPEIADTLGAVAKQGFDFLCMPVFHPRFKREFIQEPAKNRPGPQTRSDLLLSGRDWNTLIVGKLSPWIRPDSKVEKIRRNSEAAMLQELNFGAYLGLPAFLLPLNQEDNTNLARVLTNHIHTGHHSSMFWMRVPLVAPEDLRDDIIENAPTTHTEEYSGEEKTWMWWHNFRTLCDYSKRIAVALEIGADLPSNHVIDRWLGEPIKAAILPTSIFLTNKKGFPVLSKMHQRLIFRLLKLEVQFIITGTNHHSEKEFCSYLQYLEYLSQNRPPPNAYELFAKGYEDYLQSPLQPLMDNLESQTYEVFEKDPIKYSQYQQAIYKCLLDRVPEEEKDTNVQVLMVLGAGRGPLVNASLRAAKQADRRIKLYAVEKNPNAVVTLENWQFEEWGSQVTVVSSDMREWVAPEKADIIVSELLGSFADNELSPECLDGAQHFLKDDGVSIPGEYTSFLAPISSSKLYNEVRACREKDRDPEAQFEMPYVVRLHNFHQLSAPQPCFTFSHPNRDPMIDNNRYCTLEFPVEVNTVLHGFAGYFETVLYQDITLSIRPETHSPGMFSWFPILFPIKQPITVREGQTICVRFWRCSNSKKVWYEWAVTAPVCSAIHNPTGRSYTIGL
Sequence (Q9BQA1 2-342 partner limits assumed): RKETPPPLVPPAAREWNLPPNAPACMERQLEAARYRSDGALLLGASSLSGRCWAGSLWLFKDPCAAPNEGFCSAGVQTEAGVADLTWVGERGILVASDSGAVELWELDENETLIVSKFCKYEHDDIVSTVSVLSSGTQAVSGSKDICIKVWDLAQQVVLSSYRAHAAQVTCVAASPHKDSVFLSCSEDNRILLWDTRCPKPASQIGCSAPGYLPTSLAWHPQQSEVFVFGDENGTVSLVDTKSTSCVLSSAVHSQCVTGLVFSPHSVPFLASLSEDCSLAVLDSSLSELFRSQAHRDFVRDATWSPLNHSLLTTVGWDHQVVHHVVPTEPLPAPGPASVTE
Test: MTase-Glo methyl transferase assay, Method B (FL-Histone H2A, 1 µM MTA, 1 h pre-incubation)
Assay type: biochemical
Design: purchased Reaction Biology Corp RD-11-292
Measurement Context: read-out: PRMT5 MTase Glo Ki (nM, Meth. B)

{"Molecule": "COC(CN(Cc1ccc(C(F)(F)F)cn1)C(=O)c1ccc2nc(N)c(C)cc2c1)C(F)(F)F (stereo not drawn)", "Assay System": "PRMT5/MEP50 (Homo sapiens, UniProt O14744)", "Ki": "3 to 7 nM"}
{"Molecule": "Cc1cc2cc(C(=O)N(Cc3ccc(N)nc3)Cc3ccc(C(F)(F)F)cn3)ccc2nc1N", "Assay System": "PRMT5/MEP50 (Homo sapiens, UniProt O14744)", "Ki": "2 to 3 nM"}
{"Molecule": "Cc1cc2cc(C(=O)N(Cc3ccc(C(F)(F)F)cn3)C3CCc4c(O)cccc43)ccc2nc1N (stereo not drawn)", "Assay System": "PRMT5/MEP50 (Homo sapiens, UniProt O14744)", "Ki": "3 to 4 nM"}

====

System: HCT116 WT cells
Test: HCT116 proliferation assay, WT cells (CellTiter-Glo, 6 days)
Assay type: cell-based
Measurement Context: Homo sapiens, HCT-116, 144 h, read-out: Prolif_HCT116-WT IC50
# IC50 per entry

{"Compound": "Cc1cc2cc(C(=O)N(Cc3ccc(C(F)F)cn3)[C@H](C)c3ncccn3)cnc2nc1N", "IC50": "> 10 µM"}
{"Compound": "Cc1cc2cc(C(=O)N(Cc3cncc(F)c3)Cc3ccc(C(F)(F)F)cn3)ccc2nc1N", "IC50": "> 1 µM"}
{"Compound": "Cc1cc2cc(C(=O)N(Cc3ccc(C(F)(F)F)cn3)C3CCC(C)c4ccccc43)ccc2nc1N (stereo not shown)", "IC50": "> 1 µM"}
{"Compound": "CC[C@H](c1ncccn1)N(Cc1ccc(C#N)cn1)C(=O)c1ccc2nc(N)c(Br)cc2c1", "IC50": "> 10 µM"}

====

Test system: HCT116 WT cells
Test: HCT116 proliferation assay, WT cells (CellTiter-Glo, 6 days)
Assay type: cell-based
Measurement Context: Homo sapiens, HCT-116, 144 h, read-out: Prolif_HCT116-WT IC50

{"Compound": "Nc1nc2ccc(C(=O)N(Cc3ccc(C(F)(F)F)cn3)C3CCOC3C3CC3)cc2cc1Br (stereo not shown)", "Assay System": "HCT116 WT cells", "IC50": "> 10 µM"}
{"Compound": "Cc1cc2cc(C(=O)N(Cc3ccc4[nH]c(=O)[nH]c4c3)Cc3ccncc3F)ccc2nc1N", "Assay System": "HCT116 WT cells", "IC50": "> 1 µM"}
{"Compound": "Cc1cc2cc(C(=O)N(Cc3ccc(C(F)(F)F)cn3)C3CCc4sc(Cl)cc43)ccc2nc1N (stereo not shown)", "Assay System": "HCT116 WT cells", "IC50": "> 3.2 µM"}
{"Compound": "Cc1cc2cc(C(=O)N(Cc3ccc(C(F)(F)F)cn3)Cc3c[nH]c4ccccc34)ccc2nc1N", "Assay System": "HCT116 WT cells", "IC50": "> 1 µM"}

====

Test system: HCT116 WT cells
Test: HCT116 proliferation assay, WT cells (CellTiter-Glo, 6 days)
Format: cell-based
Measurement Context: Homo sapiens, HCT-116, 144 h, read-out: Prolif_HCT116-WT IC50
# log10(IC50) per entry
Quantity Measured: log10(IC50) (log10 of the value in µM)

{"Compound": "Cc1cc2cc(C(=O)N(Cc3ccc(C4CCOCC4)cn3)[C@H](C)c3ncccn3)ccc2nc1N", "Assay System": "HCT116 WT cells", "Reported Result": 0.34}
{"Compound": "Cc1cc2cc(C(=O)N(Cc3ccc(C(F)(F)F)cn3)CC(C)C#N)ccc2nc1N (stereo not drawn)", "Assay System": "HCT116 WT cells", "Reported Result": 0.93}
{"Compound": "Cc1cc2cc(C(=O)N(Cc3ncc(Br)cc3C)[C@H](C)c3ncccn3)ccc2nc1N (single isomer, unassigned)", "Assay System": "HCT116 WT cells", "Reported Result": 0.51}
{"Compound": "Cc1cc2cc(C(=O)N(Cc3ccc(Br)nn3)[C@H](C)c3ncccn3)ccc2nc1N (single isomer, unassigned)", "Assay System": "HCT116 WT cells", "Reported Result": 0.31}
{"Compound": "Cc1cc2cc(C(=O)N(Cc3ccc(C#N)c(C)n3)[C@H](C)c3ncccn3)ccc2nc1N", "Assay System": "HCT116 WT cells", "Reported Result": 0.50}
{"Compound": "Cc1cc2cc(C(=O)N(Cc3ccc(C(F)(F)F)cn3)C3CC3)c(F)cc2nc1N", "Assay System": "HCT116 WT cells", "Reported Result": 0.71}
{"Compound": "Cc1cc2cc(C(=O)N(Cc3ccc4ccccc4n3)[C@H](C)c3ncccn3)ccc2nc1N (single isomer, unassigned)", "Assay System": "HCT116 WT cells", "Reported Result": -0.07}
{"Compound": "Cc1cc2cc(C(=O)N(Cc3ccc(C(F)(F)F)cn3)[C@H](C)c3ncn(C)n3)ccc2nc1N (single isomer, unassigned)", "Assay System": "HCT116 WT cells", "Reported Result": -0.34}

====

System: HCT116 MTAP null cells
Test: HCT116 proliferation assay, MTAP null cells (CellTiter-Glo, 6 days)
Format: cell-based
Measurement Context: HCT116-MTAP null, 144 h, read-out: Protif_ HCT116-MTAP null IC50
Our labelling divides records by IC50 into ranges: low: < 100 nM; moderate: ≥ 100 nM and < 300 nM; high: ≥ 300 nM

{"Molecule": "Cc1cc2cc(C(=O)N(Cc3ccc(C(F)(F)F)nc3)Cc3ncccc3F)ccc2nc1N", "Assigned Category": "high"}
{"Molecule": "Cc1cc2cc(C(=O)N(Cc3ccc(C4=CCN(C(=O)OC(C)(C)C)CC4)cn3)[C@H](C)c3ncccn3)ccc2nc1N", "Assigned Category": "low"}
{"Molecule": "Cc1cc2cc(C(=O)N(CCc3ncon3)Cc3ccc(C(F)(F)F)cn3)ccc2nc1N", "Assigned Category": "high"}
{"Molecule": "Cc1cc2cc(C(=O)N(Cc3cccc(C(F)(F)F)n3)[C@H](C)c3ncccn3)ccc2nc1N (single isomer, unassigned)", "Assigned Category": "high"}
{"Molecule": "Cc1cc2cc(C(=O)N(Cc3ccc(N(C)C)nn3)[C@H](C)c3ncccn3)ccc2nc1N", "Assigned Category": "moderate"}
{"Molecule": "C[C@H](c1ncccn1)N(Cc1ccc(OCC(F)(F)F)nn1)C(=O)c1cnc2nc(N)c(Br)cc2c1", "Assigned Category": "high"}
{"Molecule": "Cc1cc2cc(C(=O)N(Cc3ccc(C(F)(F)F)cn3)Cc3ccccc3-n3cccn3)ccc2nc1N", "Assigned Category": "moderate"}
{"Molecule": "Cc1cc2cc(C(=O)N(Cc3ccc(C#N)cn3)[C@H](C)c3ncc(F)cc3F)ccc2nc1N", "Assigned Category": "moderate"}
{"Molecule": "Cc1cc2cc(C(=O)N(Cc3ccc(C(F)(F)F)cn3)C(C)CC(C)C)ccc2nc1N (centres unmarked)", "Assigned Category": "high"}
{"Molecule": "Cc1nc(CN(C(=O)c2cnc3nc(N)c(Br)cc3c2)[C@H](C)c2ncccn2)ccc1Br (single isomer, unassigned)", "Assigned Category": "low"}
{"Molecule": "COc1cnc(CN(C(=O)c2ccc3nc(N)c(C)cc3c2)[C@H](C)c2ncccn2)cn1 (single isomer, unassigned)", "Assigned Category": "high"}
{"Molecule": "Cc1cc2cc(C(=O)N(Cc3ccc(C#N)cn3)[C@H](C)c3ncccc3F)ccc2nc1N", "Assigned Category": "moderate"}
{"Molecule": "Cc1cc2cc(C(=O)N(Cc3ccc(C(F)(F)F)cn3)C(c3ncccn3)C(C)C)ccc2nc1N (centres unmarked)", "Assigned Category": "moderate"}
{"Molecule": "Cc1cc2cc(C(=O)N(Cc3ccc(N4CCOCC4)nn3)[C@H](C)c3ncccc3F)ccc2nc1N", "Assigned Category": "low"}
{"Molecule": "C[C@H](c1ncccc1F)N(Cc1ccc(C(F)(F)F)nn1)C(=O)c1ccc2nc(N)c(Br)cc2c1", "Assigned Category": "moderate"}
{"Molecule": "COC(=O)c1ccc(CN(Cc2ncccc2F)C(=O)c2ccc3nc(N)c(C)cc3c2)nc1", "Assigned Category": "high"}
{"Molecule": "Cc1cc2cc(C(=O)N(Cc3ccc(C(F)(F)F)cn3)[C@H](C)c3ncn(C)n3)ccc2nc1N (single isomer, unassigned)", "Assigned Category": "low"}
{"Molecule": "C[C@H](c1ncccn1)N(Cc1ccc(C(F)(F)F)cn1)C(=O)c1cnc2nc(N)c(Br)cc2c1", "Assigned Category": "moderate"}
{"Molecule": "COC[C@H](c1ccccn1)N(Cc1ccc(C(F)(F)F)cn1)C(=O)c1ccc2nc(N)c(C)cc2c1 (single isomer, unassigned)", "Assigned Category": "moderate"}
{"Molecule": "Cc1cc2cc(C(=O)N(Cc3ccc(C(F)(F)F)cn3)CC(C)C)c(O)cc2nc1N", "Assigned Category": "high"}
{"Molecule": "Cc1cc2cc(C(=O)N(Cc3ccccc3F)Cc3c[nH]c4cccnc34)ccc2nc1N", "Assigned Category": "moderate"}
{"Molecule": "Cc1cc2cc(C(=O)N(Cc3ccc(C(F)(F)F)cn3)Cc3ncc(F)cc3F)ccc2nc1N", "Assigned Category": "moderate"}
